For each entry below, report its cytotoxicity at 70.5 h value.
Assay: Human HepG2 cell viability assay in 384 well format
Assay type: toxicity, cell-based
Design: dose 125 nL, time 70.5 hour; concentration not given beside the values
Conditions: HepG2 cells, read-out: Inhibition
Answers are plain numbers, in %.

Solved entries:
Req: Please give the measured cytotoxicity at 70.5 h for this compound: COc1cccc(N2CCN(CC(O)c3cc(C)sc3C)CC2)c1 (stereo not drawn)
Resp: -2.76

Req: Repeat for the following compound: CC(=O)N1CCN(C(=O)CCc2cc(Br)cs2)CC1
Resp: -3.42

Req: Repeat for the following compound: CCOc1ccccc1C(CC(=O)N(C)c1ccccc1)NC(C)=O (stereo not drawn)
Resp: 15.9

Req: Repeat for the following compound: CS(=O)(=O)N1CCC2(CC1)COC(COc1cccnc1)C2 (stereo not drawn)
Resp: -8.18

Req: Repeat for the following compound: Cc1ccc(C(=O)N2CCCC(N)CC2)cc1N1CCNC1=O (stereo not drawn)
Resp: -2.27

# batch size: 5; output cytotoxicity at 70.5 h per entry
1. CCc1cccc(NC(=O)N2CCn3cnc(COC)c3C2)c1
2. CCCc1nc(NCCCn2ccnc2)c2c(n1)c(C)nn2CC
3. COc1cccc(CCC(=O)N2CCCC(c3nncn3C)C2)c1 (stereo not drawn)
4. CNC(=O)CN1CCC(CN(C)Cc2ccc(C)cc2C)CC1
5. O=C1CN([C@@H]2CC[C@@H](NS(=O)(=O)c3ccccc3F)[C@H]2O)CCN1

Resp:
-14.2
-11.1
-7.27
27.9
25.1

# batch size: 7; output cytotoxicity at 70.5 h per entry
1. CCC(C)(NCc1nnc(C(C)(C)C)o1)c1nccs1 (stereo not drawn)
2. NC(=O)C1CCN(C(=O)CCCc2nnc(-c3ccccc3)o2)CC1
3. CS(=O)(=O)NC1CCN(Cc2coc(-c3ccccc3)n2)CC1
4. CSc1ccccc1C(=O)C1CCCN(Cc2ccccn2)C1 (stereo not drawn)
5. CN(Cc1cnn(C)c1)C(=O)c1ccc(=O)n(C)n1
6. CCn1nnnc1-c1cccc(NC(=O)CCc2cnn(C)c2)c1
7. CCOC(=O)[C@]12CCCN(Cc3ccsc3)C[C@H]1CN(CCOC)C2

Resp:
[-0.157, -10.4, -9.14, -2.76, -1.81, -2.12, -5.12]

Req: Please give the measured cytotoxicity at 70.5 h for this compound: CC1CCN(c2ccc(C(=O)N3CCCC3c3nncn3C)cn2)CC1 (stereo not drawn)
Resp: 8.02
